Data provenance: ChEMBL document CHEMBL3046559

Could you please report measured Ratio for the items listed next?
System: Avena sterilis
procedure.details: Resistance index, ratio of GR50 for Avena sterilis accession P08 to GR50 for Avena sterilis accession P10S
Assay type: functional
No unit in the answer, please; the number alone is enough.

Please give the measured Ratio for this molecule: COC(=O)C(C)Oc1ccc(Oc2ccc(Cl)cc2Cl)cc1 (centres undefined) [DICLOFOP-METHYL] 22

Please give the measured Ratio for this molecule: CCOC(=O)[C@@H](C)Oc1ccc(Oc2nc3ccc(Cl)cc3o2)cc1 [FENOXAPROP-P-ETHYL] 55

Please give the measured Ratio for this molecule: CCO/N=C(\CC)C1=C(O)CC(c2c(C)cc(C)cc2C)CC1=O (centres undefined) [TRALKOXYDIM] 27

====

System: Avena sterilis
procedure.details: Herbicidal activity against Avena sterilis accession P10S assessed as weed survival at 1/8 times field recommended herbicide dose
Type: functional
parameter.measured: Survival (%)
Answer in %, number only, no unit symbol.

Please give the measured Survival for this molecule: CCO/N=C(\CC)C1=C(O)CC(c2c(C)cc(C)cc2C)CC1=O (stereo unspecified) 30

Please give the measured Survival for this molecule: COC(=O)C(C)Oc1ccc(Oc2ccc(Cl)cc2Cl)cc1 (stereo unspecified) 97

Please give the measured Survival for this molecule: `CCc1cc(C)cc(CC)c1-c1c(OC(=O)C(C)(C)C)n2n(c1=O)CCOCC2` 20

Please give the measured Survival for this molecule: `C#CCOC(=O)[C@@H](C)Oc1ccc(Oc2ncc(Cl)cc2F)cc1` 77

Please give the measured Survival for this molecule: COCc1cnc(C2=NC(C)(C(C)C)C(=O)N2)c(C(=O)O)c1 (stereo unspecified) 60

Please give the measured Survival for this molecule: `CCOC(=O)[C@@H](C)Oc1ccc(Oc2nc3ccc(Cl)cc3o2)cc1` 80

====

System: Avena sterilis
procedure.details: Herbicidal activity against Avena sterilis accession P11 assessed as weed survival at 1 times field recommended herbicide dose
Assay type: functional
parameter.measured: Survival (%)
Answer in %, number only, no unit symbol.

Please give the measured Survival for this molecule: COCc1cnc(C2=NC(C)(C(C)C)C(=O)N2)c(C(=O)O)c1 (stereo unspecified) 0

Please give the measured Survival for this molecule: `C#CCOC(=O)[C@@H](C)Oc1ccc(Oc2ncc(Cl)cc2F)cc1` 100

Please give the measured Survival for this molecule: CCO/N=C(\CC)C1=C(O)CC(c2c(C)cc(C)cc2C)CC1=O (stereo unspecified) 17

Please give the measured Survival for this molecule: COC(=O)C(C)Oc1ccc(Oc2ccc(Cl)cc2Cl)cc1 (stereo unspecified) 100

Please give the measured Survival for this molecule: `CCOC(=O)[C@@H](C)Oc1ccc(Oc2nc3ccc(Cl)cc3o2)cc1` 97

Please give the measured Survival for this molecule: `CCc1cc(C)cc(CC)c1-c1c(OC(=O)C(C)(C)C)n2n(c1=O)CCOCC2` 0

====

Tested on: Avena sterilis
procedure.details: Herbicidal activity against Avena sterilis accession P17 assessed as weed survival at 1 times field recommended herbicide dose
Assay type: functional
parameter.measured: Survival (%)
Answer in %, number only, no unit symbol.

Please give the measured Survival for this compound: CCO/N=C(\CC)C1=C(O)CC(c2c(C)cc(C)cc2C)CC1=O (stereo unspecified) [TRALKOXYDIM] 50

Please give the measured Survival for this compound: C#CCOC(=O)[C@@H](C)Oc1ccc(Oc2ncc(Cl)cc2F)cc1 [CLODINAFOP PROPARGYL] 97

Please give the measured Survival for this compound: CCOC(=O)[C@@H](C)Oc1ccc(Oc2nc3ccc(Cl)cc3o2)cc1 [FENOXAPROP-P-ETHYL] 97

Please give the measured Survival for this compound: CCc1cc(C)cc(CC)c1-c1c(OC(=O)C(C)(C)C)n2n(c1=O)CCOCC2 [PINOXADEN] 0

Please give the measured Survival for this compound: COC(=O)C(C)Oc1ccc(Oc2ccc(Cl)cc2Cl)cc1 (stereo unspecified) [DICLOFOP-METHYL] 93

Please give the measured Survival for this compound: COCc1cnc(C2=NC(C)(C(C)C)C(=O)N2)c(C(=O)O)c1 (stereo unspecified) [IMAZAMOX] 3

====

Could you please report measured Survival for the items listed next?
System: Avena sterilis
procedure.details: Herbicidal activity against Avena sterilis accession P14 assessed as weed survival at 8 times field recommended herbicide dose
Type: functional
Answer in %, number only, no unit symbol.

Please give the measured Survival for this molecule: COCc1cnc(C2=NC(C)(C(C)C)C(=O)N2)c(C(=O)O)c1 (stereo unspecified) [IMAZAMOX] 0

Please give the measured Survival for this molecule: C#CCOC(=O)[C@@H](C)Oc1ccc(Oc2ncc(Cl)cc2F)cc1 [CLODINAFOP PROPARGYL] 80

Please give the measured Survival for this molecule: CCc1cc(C)cc(CC)c1-c1c(OC(=O)C(C)(C)C)n2n(c1=O)CCOCC2 [PINOXADEN] 0

Please give the measured Survival for this molecule: CCO/N=C(\CC)C1=C(O)CC(c2c(C)cc(C)cc2C)CC1=O (stereo unspecified) [TRALKOXYDIM] 0

Please give the measured Survival for this molecule: CCOC(=O)[C@@H](C)Oc1ccc(Oc2nc3ccc(Cl)cc3o2)cc1 [FENOXAPROP-P-ETHYL] 27

Please give the measured Survival for this molecule: COC(=O)C(C)Oc1ccc(Oc2ccc(Cl)cc2Cl)cc1 (stereo unspecified) [DICLOFOP-METHYL] 60

====

System: Avena sterilis
procedure.details: Herbicidal activity against Avena sterilis accession P22 assessed as weed survival at 1 times field recommended herbicide dose
Format: functional
Could you please report measured Survival for the items listed next?
Answer in %, number only, no unit symbol.

Please give the measured Survival for this compound: `CCOC(=O)[C@@H](C)Oc1ccc(Oc2nc3ccc(Cl)cc3o2)cc1` 87

Please give the measured Survival for this compound: CCO/N=C(\CC)C1=C(O)CC(c2c(C)cc(C)cc2C)CC1=O (stereo unspecified) 57

Please give the measured Survival for this compound: COC(=O)C(C)Oc1ccc(Oc2ccc(Cl)cc2Cl)cc1 (stereo unspecified) 97

Please give the measured Survival for this compound: `C#CCOC(=O)[C@@H](C)Oc1ccc(Oc2ncc(Cl)cc2F)cc1` 90

Please give the measured Survival for this compound: COCc1cnc(C2=NC(C)(C(C)C)C(=O)N2)c(C(=O)O)c1 (stereo unspecified) 0

Please give the measured Survival for this compound: `CCc1cc(C)cc(CC)c1-c1c(OC(=O)C(C)(C)C)n2n(c1=O)CCOCC2` 20

====

Test system: Avena sterilis
procedure.details: Herbicidal activity against Avena sterilis accession P05 assessed as weed survival at 32 times field recommended herbicide dose
Format: functional
parameter.measured: Survival
Entry format: amount then unit.

Please give the measured Survival for this molecule: CCO/N=C(\CC)C1=C(O)CC(c2c(C)cc(C)cc2C)CC1=O (stereo unspecified) 0%

Please give the measured Survival for this molecule: COC(=O)C(C)Oc1ccc(Oc2ccc(Cl)cc2Cl)cc1 (stereo unspecified) 20%

Please give the measured Survival for this molecule: `CCc1cc(C)cc(CC)c1-c1c(OC(=O)C(C)(C)C)n2n(c1=O)CCOCC2` 0%

Please give the measured Survival for this molecule: COCc1cnc(C2=NC(C)(C(C)C)C(=O)N2)c(C(=O)O)c1 (stereo unspecified) 0%

Please give the measured Survival for this molecule: `C#CCOC(=O)[C@@H](C)Oc1ccc(Oc2ncc(Cl)cc2F)cc1` 0%

Please give the measured Survival for this molecule: `CCOC(=O)[C@@H](C)Oc1ccc(Oc2nc3ccc(Cl)cc3o2)cc1` 0%

====

Test system: Avena sterilis
procedure.details: Herbicidal activity against Avena sterilis accession P07 assessed as induction of weed mortality
Assay type: functional
parameter.measured: GR50

Please give the measured GR50 for this compound: C#CCOC(=O)[C@@H](C)Oc1ccc(Oc2ncc(Cl)cc2F)cc1 [CLODINAFOP PROPARGYL] <41 gAi/ha

Please give the measured GR50 for this compound: CCc1cc(C)cc(CC)c1-c1c(OC(=O)C(C)(C)C)n2n(c1=O)CCOCC2 [PINOXADEN] <40 gAi/ha

Please give the measured GR50 for this compound: COC(=O)C(C)Oc1ccc(Oc2ccc(Cl)cc2Cl)cc1 (stereo unspecified) [DICLOFOP-METHYL] 3737 gAi/ha

Please give the measured GR50 for this compound: CCOC(=O)[C@@H](C)Oc1ccc(Oc2nc3ccc(Cl)cc3o2)cc1 [FENOXAPROP-P-ETHYL] >2640 gAi/ha

Please give the measured GR50 for this compound: COCc1cnc(C2=NC(C)(C(C)C)C(=O)N2)c(C(=O)O)c1 (stereo unspecified) [IMAZAMOX] <50 gAi/ha

Please give the measured GR50 for this compound: CCO/N=C(\CC)C1=C(O)CC(c2c(C)cc(C)cc2C)CC1=O (stereo unspecified) [TRALKOXYDIM] <400 gAi/ha

====

Test system: Avena sterilis
procedure.details: Herbicidal activity against Avena sterilis accession P18 assessed as weed survival at 4 times field recommended herbicide dose
Assay type: functional
parameter.measured: Survival (%)
Answer in %, number only, no unit symbol.

Please give the measured Survival for this molecule: COCc1cnc(C2=NC(C)(C(C)C)C(=O)N2)c(C(=O)O)c1 (stereo unspecified) 0

Please give the measured Survival for this molecule: `CCOC(=O)[C@@H](C)Oc1ccc(Oc2nc3ccc(Cl)cc3o2)cc1` 97

Please give the measured Survival for this molecule: `CCc1cc(C)cc(CC)c1-c1c(OC(=O)C(C)(C)C)n2n(c1=O)CCOCC2` 0

Please give the measured Survival for this molecule: CCO/N=C(\CC)C1=C(O)CC(c2c(C)cc(C)cc2C)CC1=O (stereo unspecified) 20

Please give the measured Survival for this molecule: `C#CCOC(=O)[C@@H](C)Oc1ccc(Oc2ncc(Cl)cc2F)cc1` 80

Please give the measured Survival for this molecule: COC(=O)C(C)Oc1ccc(Oc2ccc(Cl)cc2Cl)cc1 (stereo unspecified) 80
